- System: RXF 393 renal
- protocol: NCI-60 one-dose screen, 48 h
- conditions: 10 µM unless noted
The panel holds about 83,000 compounds, 20% with a hit somewhere; the sample as a whole holds those more often. The source made the active and inactive calls. How the source made its calls: active means growth percent below 10; inactive means the rest.
Response enum: active, inactive

[ask] State the result this test recorded for CCCCCCNC(=O)Oc1ccc(/C(=C(/C)c2ccc(Cl)cc2)c2ccc(OCCN3CCCC3)cc2)cc1 .
[reply] active

[ask] Moving on to the next molecule: O=C(CCCCCCN1CC(=O)N2[C@@H](c3cccc(Cl)c3)c3[nH]c4ccccc4c3C[C@H]2C1=O)NO
[reply] active

[ask] Moving on to the next molecule: COc1ccc(/C=C/C(=O)c2nnn(-c3ccc(Br)cc3)c2C)cc1OC
[reply] inactive

[ask] Moving on to the next molecule: CC1=C2C(=C[C@@](C)(COS(N)(=O)=O)[C@@H]2O)C(=O)[C@](C)(O)C12CC2
[reply] active

[ask] Moving on to the next molecule: CCOC(=O)c1nn(-c2ccc(C)cc2)c(=O)c2c(N)c(C#N)c(-c3ccc(OC)cc3)cc12
[reply] inactive

[ask] Moving on to the next molecule: C/C(=C(/c1ccc(O)cc1)c1ccc(OCCN(C)C)cc1)c1ccc(Cl)cc1
[reply] inactive

[ask] Moving on to the next molecule: C#C[C@]1(O)CC[C@H]2[C@@H]3CC=C4c5sc(Nc6nc(C)cc(OC)n6)nc5CC[C@]4(C)[C@H]3CC[C@@]21C
[reply] active

[ask] Moving on to the next molecule: CCOC(=O)C1=C(C)N=C2Sc3ccccc3N2C1c1ccccc1 (configuration not stated)
[reply] inactive

[ask] Moving on to the next molecule: COc1ccc([C@@H]2[C@@H](O)C(=O)N2c2cc(OC)c(OC)c(OC)c2)cc1Cl
[reply] inactive

[ask] Moving on to the next molecule: O=C(O)CNS(=O)(=O)c1ccc(Oc2ccc(S(=O)(=O)NCC(=O)O)cc2)cc1
[reply] inactive

[ask] Moving on to the next molecule: c1ccc(-c2n(Cc3ccc4ccccc4c3)c3c4ccccc4c4ccccc4c3[n+]2Cc2ccc3ccccc3c2)cc1
[reply] active

[ask] Moving on to the next molecule: O=C(Nc1cc(Cl)cc(Cl)c1)Nc1nc2ccc([N+](=O)[O-])cc2s1
[reply] active

[ask] Moving on to the next molecule: O=C(NCCCNc1cc(-c2cn(-c3ccccc3)nc2-c2cccc(O)c2)ccn1)Nc1ccc(F)cc1
[reply] active

[ask] Moving on to the next molecule: CN1CCN(c2ccc3c(C(N)=O)c(NC(=O)c4ccc(C(C)(C)C)cc4)sc3c2)CC1
[reply] inactive

[ask] Moving on to the next molecule: O=c1oc2ccc(-c3ccc(F)cc3F)cc2c(=O)n1-c1ccc(F)c(F)c1
[reply] active

[ask] Moving on to the next molecule: CN1CCN(Cc2ccc(NC(=O)c3cncc(C#Cc4[nH]nc5ncncc45)c3)cc2C(F)(F)F)CC1
[reply] inactive

[ask] Moving on to the next molecule: CCc1ccc(NC(=O)N[C@@H](Cc2cc(F)cc(F)c2)C(=O)N[C@@H]2C(=O)N3CCC[C@H]3C(=O)N3CCO[C@H](C)[C@H]3C(=O)N[C@@H](CO)C(=O)N3C[C@H](C)C[C@H]3C(=O)O[C@H]2C)c(F)c1
[reply] active

###

- Tested on: RPMI-8226 leukemia
- protocol: NCI-60 one-dose screen, 48 h
- conditions: 10 µM unless noted
About 83,000 compounds went through this panel and 20% of them were active in at least one assay; those are over-represented in the sample as a whole. Activity calls are given as the source filed them. Rule for the calls: active = growth percent below 10; inactive = the rest.
Response enum: active, inactive

[ask] State the result this test recorded for Nc1nc(N)c2c(n1)NC(c1ccc(Cl)cc1)CC(c1ccc(Nc3nc(NCCO)nc(Nc4ccc(Cl)cc4)n3)cc1)=N2 (stereo not given) .
[reply] active

[ask] Moving on to the next molecule: Cc1cnc2nc(NN)[nH]n12
[reply] inactive

[ask] Moving on to the next molecule: COc1cc(CNC(=O)/C=C/c2ccccc2)ccc1OCC(=O)NO
[reply] inactive

[ask] Moving on to the next molecule: COc1ccc(C(=O)n2cc(C=O)c3ccccc32)cc1
[reply] inactive

[ask] Moving on to the next molecule: COc1ccc(-c2nc3cc(Cl)c(Cl)cc3n2CC(=O)N=Nc2c(O)[nH]c3ccc(Br)cc23)cc1
[reply] inactive
